# Test system: alkaline phosphatase
# Type: biochemical
property_name: A2 - Results R3
Give bare numbers.

The examples below pair each entry with its known result.
Cc1ccc(C(C)C)cc1O: 2.772
[K+].[OH-] [Potassium hydroxide (10%), Potassium hydroxide]: 0.108
CC(CC=O)CCCC(C)(C)O (stereo not shown) [Hydroxycitronellal]: 3.089
CC1=CCC(C(C)(C)O)CC1 (stereo not drawn) [alpha-Terpineol]: 2.793
CCCCCBr [1-Bromopentane]: 2.598
CCCCCCCCCCO [1-Decanol]: 2.472
C=C(C)[C@@H]1CC=C(CO)CC1 [p-Metha-1,8-dien-7-ol]: 2.868
C=CCCC=C [1,5-Hexadiene]: 2.693

List reported A2 - Results R3 for each of these compounds:
1. CN(C)CCCNCCCN [Dimethyldipropylenetriamine]
2. CCCCCCC=O [Heptanal]
3. O=C(OCc1ccccc1)c1ccccc1O [Benzyl Salicylate]
4. CCCSSCCC [di-n-Propyl disulfide]
5. CC/C=C\CC1=C(C)CCC1=O

// result
[0.114, 2.098, 3.333, 2.368, 2.704]

* * *

Kindly supply the reported percent of phosphatase measured (optical density compared to the naïve condition), average values for the records listed here.
# System: phosphatase
# Assay type: biochemical, porcine
# recorded_conditions: average of two readings
One number for each entry, in %.

Observe how each entry below is paired with its result.
OCCOCCOCCO: 28.9
CCCSSCCC [di-n-Propyl disulfide]: 69.9
CC(C)(O)CCc1ccccc1: 99.3
BrCCc1ccccc1: 100.0

For every item in the list below, what is its measured percent of phosphatase measured (optical density compared to the naïve condition), average?
1. CCCCCCC=O
2. CN(C)CCCNCCCN

// result
1: 97.2; 2: 20.6

* * *

# Test system: alkaline phosphatase
# Format: biochemical
param class (str): category from A2 - Results AVG; see ranges low: < 2; middle: ≥ 2 and < 3; high: ≥ 3

The examples below pair each entry with its known result.
CCCCCCCN: low
OCCc1ccccc1: high
CCCSSCCC [di-n-Propyl disulfide]: middle
CCCCCCCCCCCCCC(=O)OC(C)C [Isopropyl Myristate]: high
Cc1ccc(C(C)C)cc1O: middle

// query Please indicate the class for CCCCCBr based on its A2 - Results AVG.
// result middle

// query Likewise for CC1=CCC(C(C)(C)O)CC1 (stereo not shown) ?
// result middle

// query Request: CC/C=C\CC1=C(C)CCC1=O
// result middle

* * *

# System: alkaline phosphatase
# Assay type: biochemical
Answer criterion not met if A2 - Results R3 is under 2, and criterion met if it is 2 or more.

CC(C)O: criterion met
CC(C)(C)c1ccccc1O: criterion met
ClCCCCBr: criterion met
CCCCCCCC(=O)O: criterion met
CC(C)N(C)C: criterion not met

Attention now turns to another entry.
// query Entry CC(C=O)Cc1ccc(C(C)C)cc1 (stereo not shown) : is its A2 - Results R3 no less than 2?
// result criterion met

* * *

# Test system: alkaline phosphatase
# Assay type: biochemical
Kindly note that classification relies on A2 - Results R1 with these boundaries: Low: < 0.6; Mid: ≥ 0.6 and < 3; High: ≥ 3

CCCCCCC=O: Mid
CCCCCCCCCCCCCC(=O)OC(C)C [Isopropyl Myristate]: High
[K+].[OH-] [Potassium hydroxide (10%), Potassium hydroxide]: Low
CC(CC=O)CCCC(C)(C)O (stereo not drawn) [Hydroxycitronellal]: Mid
CC(C)O: Mid
CN(C)CCCNCCCN: Low

// query // return the class label for CC(C)N(C)C
// result Low

// query What do you get for CCCCCCCCC=O ?
// result Mid

// query Next record, please: CC(=O)OCc1ccccc1 [Benzyl Acetate]
// result High

// query Moving on to the next compound: CSc1ccc(C=O)cc1
// result High

* * *

# Test system: phosphatase
# Format: biochemical, porcine
# recorded_conditions: average of two readings
Provide the recorded percent of phosphatase measured (optical density compared to the naïve condition), average for the entries that follow.
Give bare numbers, in %.

Answered cases to consult:
CC(=O)O: 18.9
CC(C=O)Cc1ccc(C(C)C)cc1 (stereo not drawn): 100.0

# evaluate next
// query Query: percent of phosphatase measured (optical density compared to the naïve condition), average; subject: NCCO
// result 19.9

* * *

# System: alkaline phosphatase
# Format: biochemical
property_name: A2 - Results R3
Give bare numbers.

// known answers, use as guide
CCCCCCCCC=O: 2.117
CCCCCCCN: 0.193
CN(C)Cc1ccccc1: 0.539
CCCCCCCCCCCCCC(=O)OC(C)C [Isopropyl Myristate]: 3.360
OCCc1ccccc1: 3.287
CC(=O)O: 0.829
CC(=O)OCc1ccccc1 [Benzyl Acetate]: 3.484

Now look at this one.
// query # query: A2 - Results R3 of entry CSc1ccc(C=O)cc1
// result 3.266

* * *

# Test system: alkaline phosphatase
# Assay type: biochemical
# Protocol: New stocks were made the of the 1:100 alkaline phosphatase reaction reagents. The conditions included: 1:100 dilution of alkaline phosphatase reaction reagent with two solvents (buffered saline and ethanol), dosing in 0.5 mL microcentrifuge tubes with 20 μL of chemical added to 180 μL of reaction reagent, and incubating with p-Nitrophenyl phosphate disodium salt (PNPP) substrate for 1-hour.
Please enter Criterion met where A2 - Results AVG is greater than or equal to 3, and Criterion not met where it is lower.

Worked examples follow.
CCCCCCCCC=O: Criterion not met
CCCCCCCCCCO: Criterion not met
C=CCCC=C: Criterion not met
CC(C)=CCC/C(C)=C/CO: Criterion not met
ClCCCCBr: Criterion not met

// query I'd appreciate it if you could say whether CC(C)O has A2 - Results AVG at least equal to 3.
// result Criterion not met

// query Try CC(C)N(C)C next.
// result Criterion not met

// query Cool, now CC(=O)OCc1ccccc1 [Benzyl Acetate]
// result Criterion met

// query Try this compound too: CC(C=O)Cc1ccc(C(C)C)cc1 (centres unmarked)
// result Criterion not met

// query Repeat for the following compound: CC(=O)O
// result Criterion not met

// query # iterate: O=C(OCc1ccccc1)c1ccccc1O [Benzyl Salicylate]
// result Criterion met

// query Similarly, CSc1ccc(C=O)cc1 ?
// result Criterion met

// query Lookup C=C(C)[C@@H]1CC=C(CO)CC1
// result Criterion not met

* * *

# Tested on: alkaline phosphatase
# Format: biochemical
Would you kindly list A2 - Results AVG for each of these compounds?

CCCCCCCC(=O)O: 2.342
CC(C)(C)c1ccccc1O: 2.615
CN(C)CCCNCCCN: 0.117
CC(CC=O)CCCC(C)(C)O (stereo not shown) [Hydroxycitronellal]: 2.585
CCCCCCC=O: 2.408

Go through the list and state A2 - Results AVG for each entry.
1. CN(C)Cc1ccccc1
2. [K+].[OH-] [Potassium hydroxide (10%), Potassium hydroxide]

// result
1. 0.570
2. 0.108
